B1: CCDC6 (parent)
chain: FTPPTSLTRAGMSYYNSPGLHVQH

Variants of: B1
Assay: protein stability index of a GFP-peptide fusion (GPS, HEK-293T) (PSI 1-6); higher = more stable;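 further: lentivirally expressed fusions sorted by FACS into six bins by GFP to DsRed ratio, PSI derived from sequencing read proportions per bin multiplied by bin number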
Conditions: c terminus: a fixed tail appended
protein stability index reference
API doc: respond with a numeric literal and nothing else, no unit.

Illustrative cases are given below, each with its answer.
QUERY: Hello, please tell me recorded protein stability index for this one: `V22E`
RESULT: 2.18

QUERY: Please give the documented protein stability index of `T5M`
RESULT: 2.42

QUERY: Give protein stability index for `P3I`
RESULT: 1.63

QUERY: State its protein stability index: `A10H`
RESULT: 2.09

Now consider the entry below.
QUERY: Consider the variant `H24S` . State its measured protein stability index.
RESULT: 1.8
